FYI, the data here is from PubChem BioAssay (NCI).

tested on: MDA-MB-231 breast; assay: NCI tumour cell line growth inhibition, 48 h
measured.property: TGI

For orientation, consider the following solved cases.
COC(=O)[C@]12CC[C@@H](C)[C@H](C)[C@@H]1C1=CC[C@@H]3[C@@]4(C)C(C=O)=C[C@@](C)(COC(=O)c5ccco5)[C@@H]4C(=O)C[C@@]3(C)[C@]1(C)CC2    > 100 µM
O=C(CC(C(=O)c1ccco1)c1cccs1)c1cccs1 (stereo not given)    > 100 µM
Cc1nn(C(=O)c2ccc(Cl)cc2)c2c1C(c1cccc([N+](=O)[O-])c1)SC(N)=N2 (stereo not given)    > 10 µM
C=CCn1c(C23CC4CC(CC(C4)C2)C3)n[nH]c1=S    > 100 µM
C/C(=N\N=C(\[Se])N1CCN(c2ccccn2)CC1)c1ccccn1    17.5 µM

The measured TGI associated with O=C(CF)N(O)c1ccc(/C=C/c2ccccc2)cc1 reads > 100 µM

The measured TGI associated with O=[N+]([O-])c1ccc2c(c1)Nc1c3ccccc3nc3cccc-2c13 reads > 25.4 µM

The measured TGI associated with O=C(O)C1=C(C(=O)O)N(c2ccncc2)C(c2ccco2)=CC1c1ccccc1[N+](=O)[O-] (stereo not given) reads 30.7 µM

The measured TGI associated with N=c1nc2n(cc1F)[C@@H]1O[C@H](CO)[C@@H](O)[C@@H]1O2 reads > 100 µM

The measured TGI associated with N#Cc1c(NCCc2ccc(F)cc2)c2ccccc2n2c1nc1ccccc12 reads 36.3 µM

----------
We begin with a simple list: items and their reported TGI.
system: HCC-2998 colon; test: NCI tumour cell line growth inhibition, 48 h
Where a SMILES comes first, the peptide text is derived from it. The star is where a group is joined. Pentanoyl = CCCCC(=O)*; Boc = CC(C)(C)OC(=O)*

For orientation, consider the following solved cases.
CCn1c(-c2ccc(F)cc2)nc2c1C(=O)c1ccccc1C2=O    > 100 µM
O=c1cc(N2CCNCC2)oc2c(-c3ccccc3)cccc12    39.8 µM
Cc1c(-c2nnc(-c3ccc(Cl)cc3)o2)c(=O)n(-c2ccccc2)n1C    > 100 µM

The measured TGI associated with O=c1oc2ccccc2c(O)c1C1c2c(c3ccccc3oc2=O)Oc2c1c(=O)oc1ccccc21 reads 41.1 µM

The measured TGI associated with COc1cc(=O)n2c3ccccc3n(C)c2c1C#N reads > 100 µM

The measured TGI associated with CCCCC(=O)Oc1ccc(CC(NC(=O)OC(C)(C)C)C(=O)NC(C)C(=O)NC(Cc2ccccc2)C(=O)NCC(N)=O)cc1 (stereo not given) (Boc-Y(Pentanoyl)AFG-NH2; configuration not given here) reads 38.8 µM

The measured TGI associated with O=C(CF)N(O)c1ccc(/C=C/c2ccccc2)cc1 reads 7.69 µM

The measured TGI associated with Fc1ccc(OCc2nc3cc(C(F)(F)F)ccc3nc2-c2ccccc2)cc1 reads > 100 µM

----------
tested on: SW-620 colon; test: NCI tumour cell line growth inhibition, 48 h; in the data active = GI50 below about 0.43 µM; inactive = the rest
Outcomes you can answer with include only these: active, inactive

Here's what some known entries look like.
CN1CCN(Cc2ccc(NC(=O)c3cncc(C#Cc4cncc5ncccc45)c3)cc2C(F)(F)F)CC1    inactive
CN(C)c1ncnc2c1nnn2C1OC(CO)C(O)C1O (stereo not drawn)    active
O=C(CCCN1CCOCC1)Nc1ccc(Cn2nnc3c2C(=O)c2nnn(Cc4ccc(NC(=O)CCCN5CCOCC5)cc4)c2C3=O)cc1    inactive
CC[C@H](Nc1nc(N)nc(C)c1C#N)c1nc2cccc(NCc3ccc(C(=O)NO)cc3)c2c(=O)n1-c1ccccc1    inactive

Now for a further molecule.
Q: What is the recorded call for this molecule in the test? CC1CCN(CCCCCOc2ccc3oc4cc(Cl)ccc4c(=O)c3c2)CC1
Result: inactive

----------
test system: A498 renal; assay: NCI tumour cell line growth inhibition, 48 h
measured.property: TGI (µM)
Lab book: enter the figure in µM, no units written.

Cc1cnc(-c2c[nH]c3ccccc23)nc1-c1c[nH]c2ccccc12    7.03

# input for lookup
Hey, A498 renal data for O=c1oc2nc(-c3ccccc3)cc(C(F)(F)F)c2n1Cc1ccccc1 : TGI came out at 9.48

----------
tested on: M14 melanoma; assay: NCI tumour cell line growth inhibition, 48 h
measured.property: TGI

For orientation, consider the following solved cases.
Cc1noc(C)c1-c1cc(O)cc(C(O)c2ccccc2)c1 (configuration not stated)    > 100 µM
COC(=O)[C@]12CSC[C@H]1C[C@H](c1ccccc1OC)N2    > 100 µM
C/C(=N\N=C(\[Se])N1CCN(c2ccccn2)CC1)c1ccccn1    16.7 µM
O=C(NNc1ccnc2cc(Cl)ccc12)/C(=C\c1ccccc1Cl)NC(=O)c1ccccc1    > 100 µM
CC1(C)CCc2cc3c(cc2O1)OCC1c2cc4c(cc2OC31)OCO4 (configuration not stated)    > 100 µM

The measured TGI associated with O=C1Nc2ccccc2S/C1=C\c1cccc(C(F)(F)F)c1 reads > 100 µM

The measured TGI associated with COc1ccc(OC)c(C23CCCC(C2)N(C)CC3)c1 (configuration not stated) reads 34.1 µM

----------
tested on: SF-268 CNS; assay: NCI tumour cell line growth inhibition, 48 h; in the data active means GI50 below about 0.43 µM; inactive means the rest
Outcomes you can answer with include only these: true for active, false for inactive

Here's what some known entries look like.
Cc1cccc(C(=O)/C=C/SC(=NC#N)SCc2ccccc2)c1    false
CC/C=C\C/C=C\C[C@H](O)C/C=C1/C(=O)C=C[C@@H]1C/C=C\CCCC(=O)O    false
Cn1cc(C2=C(c3cccnc3)C(=O)NC2=O)c2ccccc21    false
O=C(CN1CCN(c2ccc(Cl)cc2)CC1)N1CCN(c2nnc(-c3ccc(Cl)cc3)c(-c3ccc(Cl)cc3)n2)CC1    false

Now for a further compound.
Q: What is the recorded call for this compound in the test? CCOc1cc2c(cc1O)/C(=N\O)C[C@@H]1[C@@H]2CC[C@]2(C)[C@@H](O)CC[C@@H]12
Result: true

----------
tested on: COLO 205 colon; assay: NCI tumour cell line growth inhibition, 48 h
We begin with a simple list: items and their reported TGI.

The measured TGI associated with O=P1(c2ccccc2)c2ccccc2CCc2ccccc21 reads > 100 µM

The measured TGI associated with O=C(NNc1ccnc2cc(Cl)ccc12)/C(=C\c1ccccc1Cl)NC(=O)c1ccccc1 reads 81.8 µM

The measured TGI associated with CC(=O)Nc1ccc(CNc2cc(=O)n(C)c(=O)[nH]2)cc1 reads > 100 µM

The measured TGI associated with O=C(CC(C(=O)c1ccco1)c1cccs1)c1cccs1 (stereo not given) reads > 100 µM

The measured TGI associated with O=[N+]([O-])c1ccc2c(c1)Nc1c3ccccc3nc3cccc-2c13 reads 19.8 µM

The measured TGI associated with O=c1oc2ccccc2c(O)c1C1c2c(c3ccccc3oc2=O)Oc2c1c(=O)oc1ccccc21 reads > 100 µM

The measured TGI associated with C/C(=N\Oc1cc(Cl)ncn1)c1ccccn1 reads > 100 µM

The measured TGI associated with CCOC(=O)C1=C(C)NC2SC(=O)/C(=C\c3ccccc3O)N2C1c1ccccc1 (stereo not given) reads 72.8 µM

The measured TGI associated with CCOC(=O)[C@H]1Nc2c(cccc2[N+](=O)[O-])[C@H]2OCC[C@@H]12 reads > 100 µM

The measured TGI associated with Cc1ccc(/C(=C\C(=O)C(=O)NC23CC4CC(CC(C4)C2)C3)Sc2ccccc2)cc1 reads > 10 µM

----------
We begin with a simple list: items and their reported TGI.
system: SF-295 CNS; test: NCI tumour cell line growth inhibition, 48 h

The measured TGI associated with O=C1C(c2c(O)[nH]c3ccc(S(=O)(=O)O)cc23)=Nc2ccc(Br)cc21 reads > 100 µM

The measured TGI associated with Cc1ccc(S(=O)(=O)/N=C(\N)N(C)N=O)cc1 reads > 100 µM

The measured TGI associated with CSCCC(N)P(C)(=O)O (stereo not given) reads > 100 µM

The measured TGI associated with CC(C)OC(=O)C1=C(O)c2ccccc2S(=O)(=O)N1 reads > 100 µM

The measured TGI associated with O=C1c2ccccc2C(=O)c2c1ccc1nc3c(nc21)-c1c2ccccc2cc2cccc-3c12 reads > 100 µM

The measured TGI associated with Cc1cnc(-c2c[nH]c3ccccc23)nc1-c1c[nH]c2ccccc12 reads 15.2 µM

The measured TGI associated with Cc1ccc([N+](=O)[O-])cc1NC(=O)C(=O)C(C(=O)c1ccccc1F)C1OC(=O)c2ccccc21 (stereo not given) reads > 100 µM

The measured TGI associated with CCOC(=O)C1=C(O)CSC1=Nc1ccccc1 reads > 100 µM

The measured TGI associated with COC(=O)[C@]12CSC[C@H]1C[C@H](c1ccccc1OC)N2 reads > 100 µM

The measured TGI associated with O=C(O)C1=C(C(=O)O)N(c2ccncc2)C(c2ccco2)=CC1c1ccccc1[N+](=O)[O-] (stereo not given) reads 25.5 µM
